- System: Danio rerio larvae (5 dpf)
- assayName: difference in excitability vs DMSO (percentage points); higher = more excitable than DMSO
- settings: 10 µM; exposure time 6 h
Counter-ions that a name gives are not always drawn.
Decide by difference in excitability: equal to or exceeding -0.7 means true (1), less means false (0).

Exercise: Please indicate if the recorded difference in excitability for CC(C)C(=O)OCC(=O)[C@@]12O[C@H](C3CCCCC3)O[C@@H]1C[C@H]1[C@@H]3CCC4=CC(=O)C=C[C@]4(C)[C@H]3[C@@H](O)C[C@@]12C [Ciclesonide] meets or exceeds -0.7.
Solution: true (1)

Exercise: Please indicate if the recorded difference in excitability for CN[C@H]1CC[C@@H](c2ccc(Cl)c(Cl)c2)c2ccccc21 [Sertraline (hydrochloride)] meets or exceeds -0.7.
Solution: true (1)

Exercise: Please indicate if the recorded difference in excitability for CNC(=C[N+](=O)[O-])NCCSCc1ccc(CN(C)C)o1 [Ranitidine (hydrochloride)] meets or exceeds -0.7.
Solution: false (0)

Exercise: Please indicate if the recorded difference in excitability for "CC(=O)OCC(CCn1cnc2cnc(N)nc21)COC(C)=O" meets or exceeds -0.7.
Solution: true (1)

Exercise: Please indicate if the recorded difference in excitability for "O=C(O)C1(C(=O)O)CCC1.[NH2-].[NH2-].[Pt+2]" meets or exceeds -0.7.
Solution: false (0)

Exercise: Please indicate if the recorded difference in excitability for "CC[C@H]1OC(=O)[C@H](C)[C@@H](O[C@H]2C[C@@](C)(OC)[C@@H](O)[C@H](C)O2)[C@H](C)[C@@H](O[C@@H]2O[C@H](C)C[C@H](N(C)C)[C@H]2O)[C@](C)(OC)C[C@@H](C)C(=O)[C@H](C)[C@@H](O)[C@]1(C)O" meets or exceeds -0.7.
Solution: true (1)

Exercise: Please indicate if the recorded difference in excitability for COc1ccc2cc(C(C)C(=O)O)ccc2c1 (single isomer, unassigned; (+)) [(+)-Naproxen] meets or exceeds -0.7.
Solution: true (1)

Exercise: Please indicate if the recorded difference in excitability for "Cc1cc(C2CCCCC2)n(O)c(=O)c1" meets or exceeds -0.7.
Solution: true (1)

Exercise: Please indicate if the recorded difference in excitability for CCCCc1ncc(/C=C(\Cc2cccs2)C(=O)O)n1Cc1ccc(C(=O)O)cc1 [Eprosartan (mesylate)] meets or exceeds -0.7.
Solution: true (1)

Exercise: Please indicate if the recorded difference in excitability for CCC1(C)CC(=O)NC1=O (stereo not given) [Ethosuximide] meets or exceeds -0.7.
Solution: true (1)

Exercise: Please indicate if the recorded difference in excitability for Clc1ccc(C(Cn2ccnc2)OCc2csc3c(Cl)cccc23)c(Cl)c1 (stereo not given) [Sertaconazole (nitrate)] meets or exceeds -0.7.
Solution: true (1)

Exercise: Please indicate if the recorded difference in excitability for "CC#CC(=O)N1CCC[C@H]1c1nc(-c2ccc(C(=O)Nc3ccccn3)cc2)c2c(N)nccn12" meets or exceeds -0.7.
Solution: true (1)

Exercise: Please indicate if the recorded difference in excitability for CN(C)CCOc1ccc(/C(=C(/CCCl)c2ccccc2)c2ccccc2)cc1 [Toremifene (citrate)] meets or exceeds -0.7.
Solution: true (1)

Exercise: Please indicate if the recorded difference in excitability for "C#C[C@]1(O)CC[C@H]2[C@@H]3CCC4=CC(=O)CC[C@@H]4[C@H]3C(=C)C[C@@]21CC" meets or exceeds -0.7.
Solution: true (1)

Exercise: Please indicate if the recorded difference in excitability for "Cc1ccc(C)c(OCCCC(C)(C)C(=O)O)c1" meets or exceeds -0.7.
Solution: true (1)

Exercise: Please indicate if the recorded difference in excitability for "CC(=O)Oc1ccccc1C(=O)O" meets or exceeds -0.7.
Solution: false (0)

Exercise: Please indicate if the recorded difference in excitability for NCCNCCNCCN [Trientine (hydrochloride)] meets or exceeds -0.7.
Solution: true (1)

Exercise: Please indicate if the recorded difference in excitability for CC(=O)N1CCN(c2ccc(OCC3COC(Cn4ccnc4)(c4ccc(Cl)cc4Cl)O3)cc2)CC1 (stereo not given) meets or exceeds -0.7.
Solution: true (1)

Exercise: Please indicate if the recorded difference in excitability for "NC(N)=Nc1nc(CSCC/C(N)=N/S(N)(=O)=O)cs1" meets or exceeds -0.7.
Solution: false (0)

Exercise: Please indicate if the recorded difference in excitability for Cn1c(=O)c2[nH]cnc2n(C)c1=O [Oxtriphylline] meets or exceeds -0.7.
Solution: false (0)

Exercise: Please indicate if the recorded difference in excitability for O=C(c1ccccc1)c1ccc2n1CCC2C(=O)O (stereo not given) [Ketorolac (tromethamine salt)] meets or exceeds -0.7.
Solution: true (1)

Exercise: Please indicate if the recorded difference in excitability for Nc1nc(=O)c2c([nH]1)NC[C@H](CNc1ccc(C(=O)N[C@@H](CCC(=O)O)C(=O)O)cc1)N2C=O [L-Folinic Acid (calcium salt)] meets or exceeds -0.7.
Solution: false (0)

Exercise: Please indicate if the recorded difference in excitability for CN1CCC[C@@H]1CCO[C@](C)(c1ccccc1)c1ccc(Cl)cc1 [Clemastine (fumarate)] meets or exceeds -0.7.
Solution: true (1)

Exercise: Please indicate if the recorded difference in excitability for CCOC(=O)[C@H](CCc1ccccc1)N[C@@H](C)C(=O)N1Cc2ccccc2C[C@H]1C(=O)O [Quinapril (hydrochloride)] meets or exceeds -0.7.
Solution: false (0)

Exercise: Please indicate if the recorded difference in excitability for Nc1nc2ccc(OC(F)(F)F)cc2s1 [Riluzole (hydrochloride)] meets or exceeds -0.7.
Solution: true (1)

Exercise: Please indicate if the recorded difference in excitability for CNC[C@H](O)c1ccc(O)c(O)c1 (racemic) [(±)-Epinephrine (hydrochloride)] meets or exceeds -0.7.
Solution: false (0)

Exercise: Please indicate if the recorded difference in excitability for "CC(C)OC(=O)CCC/C=C\C[C@@H]1[C@@H](/C=C/[C@@H](O)COc2cccc(C(F)(F)F)c2)[C@H](O)C[C@@H]1O" meets or exceeds -0.7.
Solution: true (1)

Exercise: Please indicate if the recorded difference in excitability for "COC(=O)N[C@H](C(=O)N[C@@H](Cc1ccccc1)[C@@H](O)CN(Cc1ccc(-c2ccccn2)cc1)NC(=O)[C@@H](NC(=O)OC)C(C)(C)C)C(C)(C)C" meets or exceeds -0.7.
Solution: true (1)

Exercise: Please indicate if the recorded difference in excitability for "CO[C@H]1/C=C/O[C@@]2(C)Oc3c(C)c(O)c4c(O)c(c(/C=N/N5CCN(C6CCCC6)CC5)c(O)c4c3C2=O)NC(=O)/C(C)=C\C=C\[C@H](C)[C@H](O)[C@@H](C)[C@@H](O)[C@@H](C)[C@H](OC(C)=O)[C@@H]1C" meets or exceeds -0.7.
Solution: true (1)
